Value source: patent KR20160003317A

Molecular target: T1, 송아지 혈청 알부민(BSA) (bovine (printed: 송아지 혈청 알부민), UniProt P02769 25-607)
T1 construct: also called bovine serum albumin
T1 sequence (P02769 25-607 limits assumed): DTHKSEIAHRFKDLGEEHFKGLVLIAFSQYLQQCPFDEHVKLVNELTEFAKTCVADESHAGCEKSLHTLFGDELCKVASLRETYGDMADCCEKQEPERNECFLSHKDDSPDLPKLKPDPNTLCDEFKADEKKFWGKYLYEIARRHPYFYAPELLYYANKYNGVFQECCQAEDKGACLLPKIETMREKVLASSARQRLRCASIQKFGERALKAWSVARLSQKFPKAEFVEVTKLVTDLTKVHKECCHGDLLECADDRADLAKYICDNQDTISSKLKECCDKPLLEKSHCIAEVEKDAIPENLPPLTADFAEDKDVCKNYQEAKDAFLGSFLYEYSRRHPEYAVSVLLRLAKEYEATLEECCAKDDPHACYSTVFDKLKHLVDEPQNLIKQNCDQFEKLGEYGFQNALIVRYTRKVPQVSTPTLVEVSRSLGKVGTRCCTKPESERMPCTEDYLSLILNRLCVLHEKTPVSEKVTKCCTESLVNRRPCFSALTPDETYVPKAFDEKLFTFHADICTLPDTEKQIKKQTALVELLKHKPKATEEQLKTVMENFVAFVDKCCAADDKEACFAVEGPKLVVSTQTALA
Experiment: phage ELISA, 1% BSA coated, anti-M13-peroxidase, absorbance 492 nm

# binder, binding result
rows = [
    ("SC06-198 (scFv, single-chain phage antibody: the scFv stood on phage in the ELISA) scFv: QLQLQESGPGLVKPSETLSLTCAVSGYSITSGYYWGWVRQPPGKGLEWIGSIYHTGSTYYNPSLKSRVTISVDTSKNQFSLKLNSLTAADTAVYFCASQSPAFDFWGQGTMVTVSSGTGGSGGTGSGTGGSTQSVLTQPPSVSGAPGQRVTISCTGSSSNIGTGYDVHWYQQLPGTAPKLLIYGNNNRPSGVPDRFSGSKSGTSASLAITGLQAEDEADYYCATWDDSLNGWVFGGGTKLTVP", "no binding"),
    ("SC06-078 (scFv, single-chain phage antibody: the scFv stood on phage in the ELISA) scFv: EVQLVESGAEVKKPGSSVKVSCKASGGTFSSYAISWVRQAPGQGLEWMGGIIPIFGTANYAQKFQGKVTITADESTSTAYMELSSLRSEDTAVYYCARLSPRYYGMDVWGQGTTVTVSSGTGGSGGTGSGTGGSTQSALTQPRSVSGSPGQSVTISCTGTSSDVGGYNYVSWYQQHPGKAPKLMIYGGSERPSGVSNRFSGSKSGNTASLTISGVQAEDEADYYCSSYTSSGTLLFGGGTQLTVL", "no binding"),
    ("SC06-252 (scFv, single-chain phage antibody: the scFv stood on phage in the ELISA) scFv: EVQLVETGGGLVQPGGSLRLSCAASGLTFSSYAMSWVRQAPGKGLEWVSALSGSTTFYADSVKGRFTISRDNAKNTLYLQMNSLRAEDTAVYYCARGNYYGMDVWGQGTTVTVSSGTGGSGGTGSGTGGSTSYVLTQPPSASGTPGQRVTISCSGSSSNIGKFYVYWYQQFPGAAPKLLIYSNNQRPSGVPDRFSGSKSGTSASLAISGLQSEDEADYYCAAWDGSLNGYVFGTGTKVTVL", "no binding"),
]
